B1: MNAT1 (parent)
chain: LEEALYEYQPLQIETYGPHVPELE

Variants of: B1
Assay: protein stability index of a GFP-peptide fusion (GPS, HEK-293T) (PSI 1-6); higher = more stable;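 note: lentivirally expressed fusions sorted by FACS into six bins by GFP to DsRed ratio, PSI derived from sequencing read proportions per bin multiplied by bin number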
Details: c terminus: a fixed tail appended
This section presents variants with their documented protein stability index values.
Parameter: protein stability index

Sequence Data	Parameter	Recorded Value
LEEALYEYQPLQICTYGPHVPELE [E14C]	protein stability index	2.12
LKEALYEYQPLQIETYGPHVPELE [E2K]	protein stability index	2.47
LEEALYEYQPLQIPTYGPHVPELE [E14P]	protein stability index	4.22
LEEALYEYQPLQIYTYGPHVPELE [E14Y]	protein stability index	1.87
LEEALYEYQPLQIETYGPHVPCLE [E22C]	protein stability index	3.71
LEEALYEYQPLQIETYGPNVPELE [H19N]	protein stability index	2.82
LEEALYEYQPLQIETYGPHAPELE [V20A]	protein stability index	3.26
LEEALYEYQPLQIETYTPHVPELE [G17T]	protein stability index	2.5
LEELLYEYQPLQIETYGPHVPELE [A4L]	protein stability index	3.57
LEEALYEYQPLQIETYGPHVWELE [P21W]	protein stability index	1.75
LEEALYEYQPLQIETNGPHVPELE [Y16N]	protein stability index	4.7
LEEALYEYQPLEIETYGPHVPELE [Q12E]	protein stability index	3.67
LEEALYEYQPLQIEGYGPHVPELE [T15G]	protein stability index	4.13
VEEALYEYQPLQIETYGPHVPELE [L1V]	protein stability index	4.15
LEEALYEYQPLQIETYGPHVVELE [P21V]	protein stability index	2.19
LEEALYEYQPLQIETKGPHVPELE [Y16K]	protein stability index	4.34
LEEALYEYQPLDIETYGPHVPELE [Q12D]	protein stability index	3.92
LEEALYEYQWLQIETYGPHVPELE [P10W]	protein stability index	2.63
LEEALYEYCPLQIETYGPHVPELE [Q9C]	protein stability index	2.6
LYEALYEYQPLQIETYGPHVPELE [E2Y]	protein stability index	1.71
LEEALYEYIPLQIETYGPHVPELE [Q9I]	protein stability index	3.56
LEEALYEYQPLQIETYGVHVPELE [P18V]	protein stability index	2.39
LEEALYEYEPLQIETYGPHVPELE [Q9E]	protein stability index	4.38
LESALYEYQPLQIETYGPHVPELE [E3S]	protein stability index	3.63
LEEALSEYQPLQIETYGPHVPELE [Y6S]	protein stability index	2.41
LEEALYEYQQLQIETYGPHVPELE [P10Q]	protein stability index	4.43
LEEALPEYQPLQIETYGPHVPELE [Y6P]	protein stability index	5.47
LEEALYEYQPLQIETYGPHVPETE [L23T]	protein stability index	2.6
LEEALYEYQPLQIETWGPHVPELE [Y16W]	protein stability index	2.49
LEEALKEYQPLQIETYGPHVPELE [Y6K]	protein stability index	2.46
LEEALYEYQPLHIETYGPHVPELE [Q12H]	protein stability index	2.5
LEEFLYEYQPLQIETYGPHVPELE [A4F]	protein stability index	3.1
LEEALYEYQPLQIETYGPHCPELE [V20C]	protein stability index	2.15
LEEALYEYQPLQIETCGPHVPELE [Y16C]	protein stability index	3.84
LEEALYEYQPLQIETYGPHVPKLE [E22K]	protein stability index	2.31
LEEALYEYQPLQIETAGPHVPELE [Y16A]	protein stability index	4.54
LEEALYEHQPLQIETYGPHVPELE [Y8H]	protein stability index	4.27
LEEALYEYQPLQYETYGPHVPELE [I13Y]	protein stability index	4.41
LEEALYEPQPLQIETYGPHVPELE [Y8P]	protein stability index	5.25
LEEALYEYQPLQIETYGPHVRELE [P21R]	protein stability index	2.96
LEEALYEYQPLQIETYGPHVPELQ [E24Q]	protein stability index	2.18
LEEALYNYQPLQIETYGPHVPELE [E7N]	protein stability index	2.73
LEEALYEWQPLQIETYGPHVPELE [Y8W]	protein stability index	3.59
LEEALYEYQPLQIETYGPGVPELE [H19G]	protein stability index	2.26
LEEALYEYQPLQIETYGPHVPELK [E24K]	protein stability index	2.53
LEEDLYEYQPLQIETYGPHVPELE [A4D]	protein stability index	4.84
LEIALYEYQPLQIETYGPHVPELE [E3I]	protein stability index	2.13
LEEALYEYQPLQIETQGPHVPELE [Y16Q]	protein stability index	4.33
LEEALYEYQPLIIETYGPHVPELE [Q12I]	protein stability index	2.5
LEEALYEYQPLQIETYGPHVPFLE [E22F]	protein stability index	1.97
LEEALYEYQPLQIETPGPHVPELE [Y16P]	protein stability index	4.94
LEEALYEYQPLQIQTYGPHVPELE [E14Q]	protein stability index	2.19
PEEALYEYQPLQIETYGPHVPELE [L1P]	protein stability index	4.88
LEEALYEYQPLQIETYGPHVPESE [L23S]	protein stability index	3.48
LEEALYEYQPLQISTYGPHVPELE [E14S]	protein stability index	2.25
LEEALYEYQPLQIETYGPKVPELE [H19K]	protein stability index	2.8
LEEAPYEYQPLQIETYGPHVPELE [L5P]	protein stability index	5.19
LEEALYEYQPLQIETYNPHVPELE [G17N]	protein stability index	2.99
LEEALYEYQPAQIETYGPHVPELE [L11A]	protein stability index	4.06
FEEALYEYQPLQIETYGPHVPELE [L1F]	protein stability index	3.81
LEEALYEYQPLQIHTYGPHVPELE [E14H]	protein stability index	1.8
LEEALYEYQPLQIETYGPHVPEHE [L23H]	protein stability index	3.29
LEEALYEYQPLQIKTYGPHVPELE [E14K]	protein stability index	1.75
LEEALYEYQPLQIETYGPTVPELE [H19T]	protein stability index	3.17
LEEALYTYQPLQIETYGPHVPELE [E7T]	protein stability index	2.68
LEESLYEYQPLQIETYGPHVPELE [A4S]	protein stability index	4.67
LEEALYEYQPLQIETYGPHGPELE [V20G]	protein stability index	3.45
LEEALYEYQPLQIETYGPHVPEDE [L23D]	protein stability index	4.02
LEEALYEYQPLQIETYGPHPPELE [V20P]	protein stability index	2.21
LEEILYEYQPLQIETYGPHVPELE [A4I]	protein stability index	2.88
LEEALYEYQPLQIETYGPSVPELE [H19S]	protein stability index	2.69
LEEALYEYQPLQIEWYGPHVPELE [T15W]	protein stability index	2.2
LEEALYEYQPLQIETYGPHVPWLE [E22W]	protein stability index	1.54
LEEALYEYQHLQIETYGPHVPELE [P10H]	protein stability index	4.99

meta.source: the supplement of paper PMC10567573
